Kindly supply the reported pKd values for the records listed here.
molecular target: human protein disulphide isomerase (hPDI) fragment b'x (human); assay: NMR titration; protein-observed 15N,1H-HSQC; 0.25 mM 15N b'x constant, peptide titrated (ratios 1:4 to 2.5:1); 310 K; 20 mM sodium phosphate pH 7.0, 50 mM NaCl, 5% D6-DMSO, 5% 2H2O, 0.05% sodium azide; Kd is the average of the fits of the individual shifting peaks
Non-standard residues stand in square brackets, D forms with d. No end group written: not given here. Phe(4-F) = N[C@@H](Cc1ccc(F)cc1)C(=O)O
Please treat pKd as minus the base-10 logarithm of the molar concentration.

# get_value(readout='pKd', item= AGSKNFFWKTATSS [Phe11 → Ala Δ-som] ) 3.58

And for AGSKNFFWKTFTSS [Δ-somatostatin] ? 3.99

And for AGSKNFAWKTFTSS [Phe7 → Ala Δ-som] ? 3.91

And for AGSKNF[Phe(4-F)]WKTFTSS [F2 Δ-som] ? 4.29

And for AGSKNAFWKTATSS [Phe6,11 → Ala Δ-som] ? 3.23

And for AGSKNAFWKTFTSS [Phe6 → Ala Δ-som] ? 3.70

And for AGSKNAAWKTFTSS [Phe6,7 → Ala Δ-som] ? 3.62

And for AGSKNFAWKTATSS [Phe7,11 → Ala Δ-som] ? 3.39

And for AGSKN[Phe(4-F)]FWKTFTSS [F1 Δ-som] ? 4.21

And for AGSKNFFWKT[Phe(4-F)]TSS [F3 Δ-som] ? 4.08

And for AGSKN[Phe(4-F)][Phe(4-F)]WKT[Phe(4-F)]TSS [F1,2,3 Δ-som] ? 4.32
